The reported numbers originate from ChEMBL document CHEMBL4311981.

tested on: PBMC; assay: Cytotoxicity against human PBMC cells assessed as reduction in cell viability incubated for 24 hrs by CellTiter-Glo luminescent cell viability assay; assay type: cell-based
endpoint: pIC50
Recall that pIC50 is obtained by taking minus log10 of the concentration measured in molar.

Ask: Reported pIC50 for PBMC, given `CCN(CC)CCNC(=O)c1c(C)[nH]c(/C=C2\C(=O)Nc3ccc(F)cc32)c1C` ?
Result: 4.33

###

tested on: SW982; assay: Cytotoxicity against human SW982 cells assessed as reduction in cell viability incubated for 24 hrs by CellTiter-Glo luminescent cell viability assay; format: functional, cell-based; settings: SW982, 24 h
We begin with a simple list: items and their reported IC50.
Respond numerically; units are µM and should not be typed.

Illustrative cases are given below, each with its answer.
COCCSC1=C(C)C(=O)c2ccccc2C1=O ... 9.7
CC1=C(SCCO)C(=O)c2ccccc2C1=O ... 19.3
COC1=C(OC)C(=O)c2ccccc2C1=O ... 20.6
CCSC1=C(C)C(=O)c2ccccc2C1=O ... 7.8

// below: IC50 requested for another compound
Ask: Requested field: IC50. Item: `O=C1C(SCCO)=C(SCCO)C(=O)c2ccccc21`
Result: 7.9

###

biological target: Neutrophil elastase (Homo sapiens, UniProt P08246); experiment: Inhibition of recombinant HNE (unknown origin) using N-methylsuccinyl-Ala-Ala-Pro-Val-7-amino-4-methylcoumarin, as a substrate measured every 30 sec for 10 mins by fluorometric assay
Sequence (P08246 whole entry): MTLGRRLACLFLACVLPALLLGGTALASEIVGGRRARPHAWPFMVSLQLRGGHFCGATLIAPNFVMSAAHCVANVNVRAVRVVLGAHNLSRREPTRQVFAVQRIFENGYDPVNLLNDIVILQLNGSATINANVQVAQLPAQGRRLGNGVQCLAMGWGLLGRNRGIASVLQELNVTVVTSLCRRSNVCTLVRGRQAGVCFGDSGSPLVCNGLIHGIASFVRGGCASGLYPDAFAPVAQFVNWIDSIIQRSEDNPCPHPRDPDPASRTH
endpoint: IC50 (µM)
Reply numerically in µM, unit not repeated.

Ask: API: value(readout=IC50, system=Neutrophil elastase (Homo sapiens, UniProt P08246)) for record CC(SC1=CC(=O)c2ccccc2C1=O)C(=O)O (stereo unspecified)
Result: 36.1

###

Target: M-phase inducer phosphatase 2 (Homo sapiens)
Sequence (P30305 whole entry): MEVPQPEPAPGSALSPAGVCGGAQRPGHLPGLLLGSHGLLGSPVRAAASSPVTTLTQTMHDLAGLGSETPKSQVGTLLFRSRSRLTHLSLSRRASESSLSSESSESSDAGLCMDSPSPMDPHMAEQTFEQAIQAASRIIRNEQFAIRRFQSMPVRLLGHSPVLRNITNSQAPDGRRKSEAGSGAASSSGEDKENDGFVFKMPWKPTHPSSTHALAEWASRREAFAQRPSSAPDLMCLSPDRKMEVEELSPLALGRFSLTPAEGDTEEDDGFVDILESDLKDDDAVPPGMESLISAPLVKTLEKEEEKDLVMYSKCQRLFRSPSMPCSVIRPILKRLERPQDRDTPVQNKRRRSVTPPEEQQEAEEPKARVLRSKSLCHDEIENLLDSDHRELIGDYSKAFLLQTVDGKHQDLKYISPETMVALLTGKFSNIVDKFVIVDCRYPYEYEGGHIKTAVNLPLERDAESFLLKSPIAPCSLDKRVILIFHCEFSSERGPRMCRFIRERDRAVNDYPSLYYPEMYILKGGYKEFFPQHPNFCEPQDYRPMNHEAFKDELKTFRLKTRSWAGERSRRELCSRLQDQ
We begin with a simple list: items and their reported IC50.
Return type: number; implicit unit µM.

Some entries whose results are on file:
CC(SC1=CC(=O)c2ccccc2C1=O)C(=O)O (stereo unspecified) ... 5.2
COC1=C(C)C(=O)c2ccccc2C1=O ... 33.1
CCSC1=C(C)C(=O)c2ccccc2C1=O ... 4.7
COC(=O)c1ccc(NC2=C(Cl)C(=O)c3ccccc3C2=O)cc1 ... 10.9
O=C(O)CCCNC1=C(Cl)C(=O)c2ccccc2C1=O ... 10.9

Ask: IC50 for `CC1=C(SC(C)C)C(=O)c2ccccc2C1=O` ?
Result: 9.1

Ask: Look up IC50 for this molecule: `O=C(O)c1cccc(NC2=C(Cl)C(=O)c3ccccc3C2=O)c1`
Result: 24.3

Ask: Quick one: IC50 for `O=C(O)CCSC1=CC(=O)c2ccccc2C1=O` ?
Result: 1.6

Ask: // lookup IC50 for `CC1=C(SCCO)C(=O)c2ccccc2C1=O`
Result: 10.9

Ask: Which IC50 value belongs to `CC(C)(C)[C@H]1CC[C@H](CC2=C(O)C(=O)c3ccccc3C2=O)CC1` ?
Result: 12

Ask: Which measured IC50 value corresponds to `COCCSC1=C(C)C(=O)c2ccccc2C1=O` ?
Result: 6.5

Ask: Recorded IC50 of `O=C(O)CCNC1=C(Cl)C(=O)c2ccccc2C1=O` , please.
Result: 28.8

Ask: What value of measured IC50 is listed for `CC(C)=CCC1=C(O)C(=O)c2ccccc2C1=O` ?
Result: 42.7

Ask: Report IC50 for `COc1ccc(OC)c2c1C(=O)C=C(SCCC(=O)O)C2=O` please.
Result: 7.8

Ask: Fill in the blank: the reported IC50 of `O=C(O)CCCCCNC1=C(Cl)C(=O)c2ccccc2C1=O` is ____.
Result: 23.7
